// reported Ke for each item listed
organism: Cavia porcellus; experiment: Inhibitory activity in guinea pig ileum tissue in the absence and presence of 10 nM naloxone; type: functional
# output: bare number, implied unit nM

Look over these answered cases.
>>> df
                                   compound  measured_attribute  result_number
0  CC(=O)N[C@H](Cc1ccccc1)C(=O)NCCCNC(=O)C(N)Cc1ccc(O)cc1 (stereo partly specified)                  Ke            4.4
1  CC(=O)N[C@H](Cc1ccccc1)C(=O)NCC(C)(C)NC(=O)C(N)Cc1ccc(O)cc1 (stereo partly specified)                  Ke            4.2
2  CC(=O)N[C@H](Cc1ccccc1)C(=O)NCCNC(=O)C(N)Cc1ccc(O)cc1 (stereo partly specified)                  Ke              4

stdin: Any idea what its Ke is? The compound is CC(=O)NC(Cc1ccccc1)C(=O)NCC(C)(C)NC(=O)C(N)Cc1ccc(O)cc1 (stereo in doubt)
stdout: 1.4

stdin: Returns the measured Ke for the input compound. Input: CC(=O)NC(Cc1ccccc1)C(=O)NCCC(C)(C)NC(=O)C(N)Cc1ccc(O)cc1 (stereo in doubt)
stdout: 2.1

stdin: Could you share which Ke value was measured for CC(=O)N[C@H](Cc1ccccc1)C(=O)NCCC(C)(C)NC(=O)C(N)Cc1ccc(O)cc1 (stereo partly specified) ?
stdout: 3.3

The values you see were collected from ChEMBL document CHEMBL1124645.
